Ref: ChEMBL document CHEMBL3751755

# target.of.assay: Aromatase (Homo sapiens, UniProt P11511)
# Sequence (P11511 whole entry): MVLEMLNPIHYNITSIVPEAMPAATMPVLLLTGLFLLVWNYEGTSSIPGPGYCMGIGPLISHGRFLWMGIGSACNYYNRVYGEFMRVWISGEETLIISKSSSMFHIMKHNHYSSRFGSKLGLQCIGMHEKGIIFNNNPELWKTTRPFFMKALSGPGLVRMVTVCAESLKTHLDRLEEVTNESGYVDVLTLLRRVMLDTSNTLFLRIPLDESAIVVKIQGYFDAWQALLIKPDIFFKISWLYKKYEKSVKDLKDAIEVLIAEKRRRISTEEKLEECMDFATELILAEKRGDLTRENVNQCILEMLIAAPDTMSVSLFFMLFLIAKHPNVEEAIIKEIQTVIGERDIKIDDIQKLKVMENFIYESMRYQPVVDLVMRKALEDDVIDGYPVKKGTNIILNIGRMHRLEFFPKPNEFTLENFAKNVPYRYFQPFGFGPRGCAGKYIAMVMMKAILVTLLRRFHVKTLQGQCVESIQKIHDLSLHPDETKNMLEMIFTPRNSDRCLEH
# protocol.description: Competitive inhibition of human aromatase extracted from placental microsomes after 10 mins in presence of [1beta-3H]androstenedione
pKi values by entry
A value of pKi is the negative decimal logarithm of a concentration given in moles per litre.

[[record]]
compound_smiles = "CCCC[C@H]1C[C@@H]2[C@H](CC[C@]3(C)C(=O)CC[C@@H]23)[C@@]2(C)CCC(=O)C=C12"
observed_value = 8.85

[[record]]
compound_smiles = "C[C@]12CCC(=O)C=C1[C@@H](Cc1ccccc1)C[C@@H]1[C@@H]2CC[C@]2(C)C(=O)CC[C@@H]12"
observed_value = 8.00


Continue with the next compound.
*Q* Field request: pKi | item: C[C@H]1C[C@@H]2[C@H](CC[C@]3(C)C(=O)CC[C@@H]23)[C@@]2(C)CCC(=O)C=C12
*A* 8.85
